# Test system: OVCAR-3
# experimental.protocol: NCI tumour cell line growth inhibition, 48 h
Activity calls are given as the source filed them. Rule as the data show it: active = GI50 up to about 1.1 µM and inactive = higher.
Bench note: report the call from active, inactive

C=CC(C)(C)n1cc(C2=C(O)C(=O)C(c3cn(C(C)(C)C=C)c4ccccc34)=C(OC(C)=O)C2=O)c2ccccc21	active
Cn1cnc(C(N)=[Se])c1N	inactive
O=Cc1ccc2c(c1I)OCO2	inactive
CCN(CC)CCC1CCCCN1CC(=O)N1c2ccccc2NC(=O)c2ccccc21 (stereo not given)	inactive
[N-]=[N+]=NCN1C(=O)C2C3C=CC(C2C1=O)C1C2C(=O)N(CN=[N+]=[N-])C(=O)C2C31 (stereo not given)	inactive
COC(=O)CC(=O)OC1C[C@@H]2CCC3C(C)(C)CCC[C@]3(C)C23CC[C@@]1(C)C3 (stereo not given in full)	inactive
CCN(CC)Cc1c(/C=C\c2cc(OC)c(OC)c(OC)c2)ccc(OC)c1O	inactive
CCN(CC)CCCNc1ccc2nc(C)n3c4ccc(O)cc4c(=O)c1c23	inactive

Query block: Per the records of this test, what outcome belongs to "Cc1c(C)c(C)c(-n2[nH]c(=O)n(C)c2=O)c(C)c1C" ?
Result block: inactive

Query block: Recorded test outcome, item COC(=O)C1=C(c2ccc3c(c2)OCO3)OC(c2cc(OC)c(OC)c(OC)c2)C1 (stereo not given)
Result block: inactive
